- Test system: Aβ plaques on AD brain section
- TEST_DETAILS: Assay 1: displacement of Compound B on human AD brain sections (fluorescence)
- Type: binding
- Protocol: Direct Binding of Compounds of this Invention to Human Alzheimer's Disease Brain Sections and/or Displacement of RefA and Compound B Frozen sections with a thickness of […] from the amygdala of donors diagnosed with Braak stage V-VI Alzheimer's Disease (Braak, H.; Braak, E. Acta Neuropathol., 1991, 82, 239-259), were purchased from a commercial provider (Tissue Solutions) and kept at -80° C. until use. […] Images were acquired, and tangles and plaques quantified using the NIS-Element software. […]
Measured Competition on AD brain section Aβ plaques (1 μM Compound B vs 250 μM compound) accompanies every entry in the list below.
Write the value in % as a bare number.

Worked examples follow.
{"columns": ["COMPOUND", "SYSTEM_TESTED", "MEASURED"],
 "data": [
  ["Cn1c2ccncc2c2ccc(Nc3cncc(OCCF)c3)nc21 [Example 59]", "Aβ plaques on AD brain section", "−9"],
  ["Cn1c2ccncc2c2ccc(Nc3cc(F)cc(N4CCOCC4)c3)nc21 [Example 7]", "Aβ plaques on AD brain section", 0],
  ["Cn1c2ccncc2c2ccc(Nc3cccc(OCCOCCF)c3)nc21 [Example 95]", "Aβ plaques on AD brain section", 59],
  ["Cn1c2ccncc2c2ccc(N3CCOC[C@H]3CF)nc21 [Example 150]", "Aβ plaques on AD brain section", 3],
  ["Cn1c2ccncc2c2ccc(N3CC4(CC(F)C4)C3)nc21 [Example 146]", "Aβ plaques on AD brain section", 0],
  ["Cn1c2ccncc2c2ccc(Nc3cccc(OC(F)F)c3)nc21 [Example 4]", "Aβ plaques on AD brain section", 17]
]}

[ask] Enter measured Competition on AD brain section Aβ plaques (1 μM Compound B vs 250 μM compound), system Aβ plaques on AD brain section, for the compound shown: Cn1c2ccncc2c2ccc(Nc3ccc(OC(F)F)cc3)nc21 [Example 9]
[reply] 0

[ask] Look up and report Competition on AD brain section Aβ plaques (1 μM Compound B vs 250 μM compound), with Aβ plaques on AD brain section as system, for CN1CCc2c(c3ccc(Nc4ccc(F)cc4N4CCOCC4)nc3n2C)C1=O [Example 175]
[reply] 0

[ask] Using Aβ plaques on AD brain section as the test system, report measured Competition on AD brain section Aβ plaques (1 μM Compound B vs 250 μM compound) of Cn1c2ccncc2c2ccc(Nc3cccc(OCCF)c3)nc21 [Example 8] .
[reply] 6

[ask] Recall the reported Competition on AD brain section Aβ plaques (1 μM Compound B vs 250 μM compound) of Cn1c2ccncc2c2ccc(Nc3ccc(F)c(N4CCOCC4)c3)nc21 [Example 3] on Aβ plaques on AD brain section and write it down.
[reply] 8

[ask] State recorded Competition on AD brain section Aβ plaques (1 μM Compound B vs 250 μM compound) with Aβ plaques on AD brain section, entry Cn1c2ccncc2c2ccc(Nc3cncc(OCCOCCF)c3)nc21 [Example 65] , no comment.
[reply] 35

[ask] Print Aβ plaques on AD brain section Competition on AD brain section Aβ plaques (1 μM Compound B vs 250 μM compound) for Cn1c2ccncc2c2ccc(N3CCC(F)CC3)nc21 [Example 161] .
[reply] 14
